- Tested on: TNF-α induced IL-6
- test: TNF-α-induced IL-6 production determined by IL-6 ELISA
- Format: cell-based
- experimental conditions: HAEC, TNF stimulated, compound 10 uM
reported metric: % IL6 production compare to TNF stimulation of IL6 (100%), Compds tested @ 10 uM HAEC, IL6

* CN1CCC(N(C)c2nc(Nc3ccc(O)c(Cl)c3)nc(NC3CCCCCC3)n2)CC1 [Compound 138] | toxic
* CCN1CCCC1CNc1nc(Nc2ccc(OC)c(Cl)c2)nc(NC2CN3CCC2CC3)n1 (stereo not shown) [Compound 148] | total cell death
* COc1ccc(Nc2nc(NC3CCCCCC3)nc(NC3CCN(Cc4ccccc4)CC3)n2)cc1Cl [Compound 134] | total cell death

---

- Tested on: TNF-α induced IL-6
- test: TNF-α-induced IL-6 production determined by IL-6 ELISA
- Assay type: cell-based
- experimental conditions: Homo sapiens, 24 h; Table 5, first part; class = % of control IL6 production; read-out: Inhibition of TNF-induced IL6 production
- Procedure: Human aortic endothelial cells (HAEC, Clonetics) were cultured according to manufacturer in growth medium (Clonetics): basal medium containing human epidermal growth factor, hydrocortisone, vascular endothelial growth factor, heparin binding growth factor-B, long R3-insulin-like growth factor-1, ascorbic acid, gentamicin/amphotericin and 5% FBS. These cell were allowed to reach at least 90% confluency before subjected to experimental treatments. […] Tumor necrosis factor α was from R&D Systems. […]
Reported activity at 10 µM values for the following molecules.
reported metric: activity at 10 µM

• CCNc1nc(Nc2ccc(OC)c(F)c2)nc(NC2CCCCCC2)n1 = 0 to 25%
• CCN1CCC[C@@H]1CNc1nc(Nc2ccc(OC)c(F)c2)nc(NC2CCCCCC2)n1 = 0 to 25%
• CCN1CCCC1CNc1nc(NCC2CCCN2CC)nc(Nc2ccc(OC)c(F)c2)n1 (centres unmarked) = 0 to 25%
• CCN1CCCC1CNc1nc(Nc2ccc(OC)c(F)c2)nc(NC2CCCCC2)n1 (centres unmarked) = 0 to 25%
• COc1ccc(Nc2nc(NC3CCCCCC3)nc(N3CCCC4CCCCC43)n2)cc1F (centres unmarked) = 25 to 50%

---

- System: TNF-α induced IL-6
- test: TNF-α-induced IL-6 production determined by IL-6 ELISA
- Assay type: cell-based
- experimental conditions: Homo sapiens, 24 h; Table 5, first part; class = % of control IL6 production; read-out: Inhibition of TNF-induced IL6 production
Reported activity at 10 µM values for the following compounds.
reported metric: activity at 10 µM

* COc1ccc(Nc2nc(NCc3ccccc3)nc(NC3CCCCCC3)n2)cc1F | 25 to 50%
* CCN1CCCC1CNc1nc(Nc2ccc(OC)c(Cl)c2)nc(NC2CCCCCC2)n1 (stereo not shown) | 25 to 50%
* COc1ccc(Nc2nc(NCCN(C)C)nc(NC3CCCCCC3)n2)cc1F | 0 to 25%
* CCN1CCCC1CNc1nc(Nc2cccc(NC(C)=O)c2)nc(NC2CCCCCC2)n1 (stereo not shown) | 0 to 25%
* COc1ccc(Nc2nc(NC3CCCCCC3)nc(NC3CCC(C)CC3)n2)cc1F (stereo not shown) | 25 to 50%
* CCN1CCCC1CNc1nc(Nc2ccc(OC)c(F)c2)nc(NC2CCC(C)CC2)n1 (stereo not shown) | 0 to 25%
* CCN1CCC[C@@H]1CNc1nc(NCC2CCCCC2)nc(Nc2ccc(OC)c(F)c2)n1 | 0 to 25%
* CCN(CC)c1ccc(Nc2nc(NCC3CCCN3CC)nc(NC3CCCCCC3)n2)cc1Cl (stereo not shown) | 0 to 25%
* CCN1CCC[C@H]1CNc1nc(Nc2ccc(OC)c(F)c2)nc(NC2CCCCCC2)n1 | 0 to 25%
* COc1ccc(Nc2nc(NC3CCCCCC3)nc(N3CCN(CC(=O)N4CCCC4)CC3)n2)cc1F | 25 to 50%
* CCOC(=O)N1CCN(c2nc(NCC3CCCN3CC)nc(Nc3ccc(OC)c(F)c3)n2)CC1 (stereo not shown) | 25 to 50%
* CCN1CCCC1CNc1nc(NCCN2CCCCC2)nc(Nc2ccc(OC)c(F)c2)n1 (stereo not shown) | 0 to 25%
* CCN1CCCC1CNc1nc(Nc2ccc(OC)c(F)c2)nc(N2CCCCCC2)n1 (stereo not shown) | 0 to 25%
* CCN1CCCC1CNc1nc(Nc2ccc(N3CCOCC3)cc2)nc(NC2CCCCCC2)n1 (stereo not shown) | 0 to 25%
* COC[C@@H]1CCCN1c1nc(Nc2ccc(OC)c(F)c2)nc(NC2CCCCCC2)n1 | 0 to 25%
* CCN1CCCC1CNc1nc(Nc2ccc(OC)c(F)c2)nc(N2CCCC2)n1 (stereo not shown) | 0 to 25%
